Test system: BV-2
assay.method.text: Anti-inflammatory activity against mouse BV-2 cells assessed as inhibition of LPS-induced NO production pretreated for 2 hrs followed stimulated with LPS for 22 hrs by Griess reaction assay
Format: functional, cell-based
readout.label: pIC50
Schema: pIC50 number; meaning minus log10 of the concentration expressed in molar units.

Give recorded pIC50. COc1cc2c(c(OC)c1OC)C(=O)CC(c1cccc(C(=O)Nc3cccc([N+](=O)[O-])c3)c1)O2 (racemic)
4.83

Fill in pIC50 for record COc1cc2c(c(OC)c1OC)C(=O)CC(c1cccc(NC(=O)c3ccccc3Br)c1)O2 (racemic)
4.88

Look up pIC50 of COc1cc2c(c(OC)c1OC)C(=O)CC(c1cccc(C(=O)Nc3ccc(Br)cc3)c1)O2 (racemic) and report it.
4.88

Supply pIC50 value. Item: COc1cc2c(c(OC)c1OC)C(=O)CC(c1cccc(NC(=O)c3ccc([N+](=O)[O-])cc3)c1)O2 (racemic)
4.70

In one line, give reported pIC50 of the entry COc1cc2c(c(OC)c1OC)C(=O)CC(c1cccc(NC(=O)c3ccc(Br)cc3)c1)O2 (racemic) .
4.83

Quickly give me recorded pIC50 for COc1cc2c(c(OC)c1OC)C(=O)CC(c1cccc(C(=O)Nc3cccc(Br)c3)c1)O2 (racemic)
4.93

Attribution: ChEMBL document CHEMBL5625164
